- tested-system: T1, mouse GPC3-SK-HEP1 (mouse, UniProt Q8CFZ4)
- T1 construct: cell-surface protein on transfected cells; also called mouse GPC3 transfected SK-Hep1 cells
- T1 sequence (Q8CFZ4 25-553 limits assumed): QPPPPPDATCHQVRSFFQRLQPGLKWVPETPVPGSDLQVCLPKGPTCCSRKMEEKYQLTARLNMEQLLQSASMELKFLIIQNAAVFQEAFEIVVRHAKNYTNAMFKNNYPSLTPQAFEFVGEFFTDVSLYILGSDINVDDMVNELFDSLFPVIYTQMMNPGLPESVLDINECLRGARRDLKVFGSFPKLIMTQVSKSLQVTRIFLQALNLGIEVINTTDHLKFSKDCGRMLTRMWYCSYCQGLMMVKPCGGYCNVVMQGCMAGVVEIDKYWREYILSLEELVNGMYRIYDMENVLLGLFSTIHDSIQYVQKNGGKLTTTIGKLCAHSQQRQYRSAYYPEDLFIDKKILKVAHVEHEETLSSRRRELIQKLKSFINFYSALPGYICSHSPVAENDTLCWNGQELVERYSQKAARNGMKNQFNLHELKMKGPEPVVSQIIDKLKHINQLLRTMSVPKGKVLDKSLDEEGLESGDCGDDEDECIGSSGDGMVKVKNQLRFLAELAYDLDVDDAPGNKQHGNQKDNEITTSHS
- assay-name: flow cytometry on SK-HEP1 cells stably transfected with mouse GPC3, detection via rabbit anti-hNGAL antiserum and anti-rabbit IgG-PE
- Experimental: Empty vector control cells were also obtained and analyzed in parallel. Detection of GPC3 was achieved using mouse anti-glypican 3 clone 1G12 monoclonal antibody (DCS). In order to assess binding of muteins to the GPC3 on the cell surface, 200,000 cells in PBS/2% FCS were used in each binding reaction. Reactions were performed on ice in 30 μl for 2 h. Following two washing steps in PBS/2% FCS a secondary rabbit anti-hNGAL scaffold antiserum was employed for 30 min. followed another two wash steps. […]
Task for the reader: assign each of the following binders its reported EC50.
Reply with just the number (in nM).

Record request: EC50 value, item PIE-G3E (designed binder, C-terminal Strep-tag II; also called Lcn2 mutein; not shown: C-terminal Strep-tag II) QDSTSDLIPAPPLSKVPLQQNFQDNQFHGKWYVVGSAGNHRLREDKDPRKMHATIYELKEDKSYNVTNVTFREKKCHYSIGTFVPGSQPGEFTLGKIKSNPGMTSFLVRVVSTNYNQHAMVFFKKVHQNREQFNITLYGRTKELTSELKENFIRFSKSLGLPENHIVFPVPIDQCIDGSAWSHPQFEK
2.7

Record request: EC50 value, item PIE-G3D (designed binder, C-terminal Strep-tag II; also called Lcn2 mutein; not shown: C-terminal Strep-tag II) QDSTSDLIPAPPLSKVPLQQNFQDNQFHGKWYVVGMAGNARLREDKDPVKMTATIYELKEDKSYNVTAVQFRLKKCQYGITTFVPGSQPGEFTLGDIKSIPGLTSMLVRVVSTNYNQHAMVFFKRVRQNREFFDITLYGRTKELTSELKENFIRFSKSLGLPENHIVFPVPIDQCIDGSAWSHPQFEK
10.5

Record request: EC50 value, item PIE-G3B (designed binder, C-terminal Strep-tag II; also called Lcn2 mutein; not shown: C-terminal Strep-tag II) QDSTSDLIPAPPLSKVPLQQNFQDNQFHGKWYVVGVAGNAMLREDKDPLKMRATIYELKEDKSYNVTGVSFWRKKCHYKIGTFVPGSQPGEFTLGDIKSGPGQTSNLVRVVSTNYNQHAMVFFKEVRQNREWFAITLYGRTKELTSELKENFIRFSKSLGLPENHIVFPVPIDQCIDGSAWSHPQFEK
2.9
